Kindly supply the reported MIC values for the records listed here.
- Test system: Pa LES431
- Format: cell-based, Pseudomonas aeruginosa
*1 amine or outer side, *2 acyl side, *3 side chain or, on linkers, in order; H or OH if unused. Where a SMILES comes first, the peptide text is derived from it. Bridges are numbered along the chain shown (N, C = ends). [ ]: non-standard residue; d: D form. The star is where a group is joined. X2 = O=C([C@@H](N[*:1])[C@H](O)CCC(F)(F)F)[*:2]; Propargyl(OCH2CH2)4CO = C#CCOCCOCCOCCOCCC(=O)*; Aoc(2) = CCCCCC[C@H](N)C(=O)O; Dab = NCC[C@H](N)C(=O)O; azaGly = NNC(=O)O
Give the value in mg/L but do not write mg/L after it.

Return reported MIC; argument: C#CCOCCOCCOCCOCCC(=O)N[C@@H](CCCCCC)C(=O)N[C@@H](CCN)C(=O)N[C@H](C(=O)NNC(=O)N[C@H]1CCNC(=O)[C@H]([C@@H](C)O)NC(=O)[C@H](CCN)NC(=O)[C@H](CCN)NC(=O)[C@H](CC(C)C)NC(=O)[C@@H](Cc2ccccc2)NC(=O)[C@H](CCN)NC1=O)[C@H](O)CCC(F)(F)F [Int-119] ({Propargyl(OCH2CH2)4CO}-[Aoc(2)][Dab][X2][azaGly][Dab][Dab][dF]L[Dab][Dab]T; lactam 5-C)
4

What do you have for C#CCOCCOCCOCCOCCC(=O)Nc1nc(C)c(C(=O)N[C@@H](CCCC)C(=O)C[C@@H](CCN)C(=O)N[C@H](C(=O)NC(CCCN)C(=O)N[C@H]2CCNC(=O)[C@H]([C@@H](C)O)NC(=O)[C@H](CCN)NC(=O)[C@H](CCN)NC(=O)[C@H](CC(C)C)CC(=O)[C@@H](Cc3ccccc3)NC(=O)[C@H](CCN)CC2=O)[C@@H](C)O)s1 (stereo partly drawn) ?
1

Thanks! And C#CCOCCOCCOCCOCCC(=O)N[C@@H](CCCCCC)C(=O)N[C@@H](CCN)C(=O)N[C@H](C(=O)N[C@@H](CCN)C(=O)N[C@H]1CCNC(=O)[C@H]([C@@H](C)O)NC(=O)[C@H](CCN)NC(=O)[C@H](CCN)NC(=O)[C@H](CC(C)C)NC(=O)[C@@H](Cc2ccccc2)NC(=O)[C@H](CCN)NC1=O)[C@H](O)CCC(F)(F)F [Int-118] ({Propargyl(OCH2CH2)4CO}-[Aoc(2)][Dab][X2][Dab][Dab][Dab][dF]L[Dab][Dab]T; lactam 5-C) ?
1

----------
- Test system: Pa LES431
- Format: cell-based, Pseudomonas aeruginosa
*1 amine or outer side, *2 acyl side, *3 side chain or, on linkers, in order; H or OH if unused. Where a SMILES comes first, the peptide text is derived from it. Bridges are numbered along the chain shown (N, C = ends). [ ]: non-standard residue; d: D form. The star is where a group is joined. Propargyl(OCH2CH2)4CO = C#CCOCCOCCOCCOCCC(=O)*; X1 = CCCCCC[C@@H](O)[C@H](N[*:1])C(=O)[*:2]; X3 = CCCCC[C@@H](O)[C@H](N[*:1])C(=O)[*:2]; azaDab = NCCN(N[*:1])C(=O)[*:2]; dCha = N[C@H](CC1CCCCC1)C(=O)O; Aoc(2) = CCCCCC[C@H](N)C(=O)O; hLeu = CC(C)CC[C@H](N)C(=O)O; X7 = NCCN(NC(=O)[*:2])[*:1]; Dab = NCC[C@H](N)C(=O)O; azaGly = NNC(=O)O
Please provide measured MIC for the entries that follow.
Response body: numeric value in µg/mL, unit text excluded.

I am curious: what MIC value has been reported for C#CCOCCOCCOCCOCCC(=O)N[C@@H](CCCCCC)C(=O)N[C@@H](CCN)C(=O)N[C@H](C(=O)N[C@@H](CCN)C(=O)N[C@H]1CCNC(=O)[C@H]([C@@H](C)O)NC(=O)[C@H](CCN)NC(=O)[C@H](CCN)NC(=O)[C@H](CC(C)C)NC(=O)[C@@H](Cc2ccccc2)NC(=O)[C@H](CCN)NC1=O)[C@@H](C)O [Int-17] ({Propargyl(OCH2CH2)4CO}-[Aoc(2)][Dab]T[Dab][Dab][Dab][dF]L[Dab][Dab]T; lactam 5-C) ?
1

How about C#CCOCCOCCOCCOCCC(=O)N[C@@H](CCC(C)C)C(=O)N[C@@H](CCN)C(=O)N[C@H](C(=O)N(CCN)NC(=O)N[C@H]1CCNC(=O)[C@H]([C@@H](C)O)NC(=O)[C@H](CCN)NC(=O)[C@H](CCN)NC(=O)[C@H](CC(C)C)NC(=O)[C@@H](Cc2ccccc2)NC(=O)[C@H](CCN)NC1=O)[C@@H](C)O [Int-126] ({Propargyl(OCH2CH2)4CO}-[hLeu][Dab]T[X7][Dab][Dab][dF]L[Dab][Dab]T; lactam 5-C) ?
4

And the next one, C#CCOCCOCCOCCOCCC(=O)N[C@@H](CCCCCC)C(=O)N[C@@H](CCN)C(=O)N[C@H](C(=O)NN(CCN)C(=O)N[C@H]1CCNC(=O)[C@H]([C@@H](C)O)NC(=O)[C@H](CCN)NC(=O)[C@H](CCN)NC(=O)[C@H](CC(C)C)NC(=O)[C@@H](Cc2ccccc2)NC(=O)[C@H](CCN)NC1=O)[C@@H](C)O [Int-129] ({Propargyl(OCH2CH2)4CO}-[Aoc(2)][Dab]T[azaDab][Dab][Dab][dF]L[Dab][Dab]T; lactam 5-C) ?
2

Another: C#CCOCCOCCOCCOCCC(=O)N[C@@H](CCN)C(=O)N[C@H](C(=O)NNC(=O)N[C@H]1CCNC(=O)[C@H]([C@@H](C)O)NC(=O)[C@H](CCN)NC(=O)[C@H](CCN)NC(=O)[C@H](CC(C)C)NC(=O)[C@@H](CC2CCCCC2)NC(=O)[C@H](CCN)NC1=O)[C@H](O)CCCCCC [Int-115] ({Propargyl(OCH2CH2)4CO}-[Dab][X1][azaGly][Dab][Dab][dCha]L[Dab][Dab]T; lactam 4-C)
4

Moving on to the next compound: C#CCOCCOCCOCCOCCC(=O)N[C@@H](CCC(C)C)C(=O)N[C@@H](CCN)C(=O)N[C@H](C(=O)NN(CCN)C(=O)N[C@H]1CCNC(=O)[C@H]([C@@H](C)O)NC(=O)[C@H](CCN)NC(=O)[C@H](CCN)NC(=O)[C@H](CC(C)C)NC(=O)[C@@H](Cc2ccccc2)NC(=O)[C@H](CCN)NC1=O)[C@@H](C)O [Int-127] ({Propargyl(OCH2CH2)4CO}-[hLeu][Dab]T[azaDab][Dab][Dab][dF]L[Dab][Dab]T; lactam 5-C)
1

Again, but for C#CCOCCOCCOCCOCCC(=O)N[C@@H](CCC(C)C)C(=O)N[C@@H](CCN)C(=O)N[C@H](C(=O)NNC(=O)N[C@H]1CCNC(=O)[C@H]([C@@H](C)O)NC(=O)[C@H](CCN)NC(=O)[C@H](CCN)NC(=O)[C@H](CC(C)C)NC(=O)[C@@H](Cc2ccccc2)NC(=O)[C@H](CCN)NC1=O)[C@H](O)CCCCC [Int-116] ({Propargyl(OCH2CH2)4CO}-[hLeu][Dab][X3][azaGly][Dab][Dab][dF]L[Dab][Dab]T; lactam 5-C)
4

----------
- Tested on: Pa PAO1
- Format: cell-based, Pseudomonas aeruginosa
- Condition Label: PAO1
*1 amine or outer side, *2 acyl side, *3 side chain or, on linkers, in order; H or OH if unused. Where a SMILES comes first, the peptide text is derived from it. Bridges are numbered along the chain shown (N, C = ends). [ ]: non-standard residue; d: D form. The star is where a group is joined. X2 = O=C([C@@H](N[*:1])[C@H](O)CCC(F)(F)F)[*:2]; Propargyl(OCH2CH2)4CO = C#CCOCCOCCOCCOCCC(=O)*; X1 = CCCCCC[C@@H](O)[C@H](N[*:1])C(=O)[*:2]; azaDab = NCCN(N[*:1])C(=O)[*:2]; dCha = N[C@H](CC1CCCCC1)C(=O)O; Aoc(2) = CCCCCC[C@H](N)C(=O)O; Dab = NCC[C@H](N)C(=O)O; azaGly = NNC(=O)O
Measurement Kind: MIC (µg/mL)
Give the value, in units of µg/mL, as a plain number.

Find the measured MIC: item C#CCOCCOCCOCCOCCC(=O)N[C@@H](CCCCCC)C(=O)N[C@@H](CCN)C(=O)N[C@H](C(=O)N[C@@H](CCN)C(=O)N[C@H]1CCNC(=O)[C@H]([C@@H](C)O)NC(=O)[C@H](CCN)NC(=O)[C@H](CCN)NC(=O)[C@H](CC(C)C)NC(=O)[C@@H](Cc2ccccc2)NC(=O)[C@H](CCN)NC1=O)[C@H](O)CCC(F)(F)F [Int-118] ({Propargyl(OCH2CH2)4CO}-[Aoc(2)][Dab][X2][Dab][Dab][Dab][dF]L[Dab][Dab]T; lactam 5-C) , target or system Pa PAO1.
2

Entry to check: C#CCOCCOCCOCCOCCC(=O)N[C@@H](CCCCCC)C(=O)N[C@@H](CCN)C(=O)N[C@H](C(=O)NN(CCN)C(=O)N[C@H]1CCNC(=O)[C@H]([C@@H](C)O)NC(=O)[C@H](CCN)NC(=O)[C@H](CCN)NC(=O)[C@H](CC(C)C)NC(=O)[C@@H](Cc2ccccc2)NC(=O)[C@H](CCN)NC1=O)[C@@H](C)O [Int-129] ({Propargyl(OCH2CH2)4CO}-[Aoc(2)][Dab]T[azaDab][Dab][Dab][dF]L[Dab][Dab]T; lactam 5-C)
8

Now consider C#CCOCCOCCOCCOCCC(=O)N[C@@H](CCN)C(=O)N[C@H](C(=O)NNC(=O)N[C@H]1CCNC(=O)[C@H]([C@@H](C)O)NC(=O)[C@H](CCN)NC(=O)[C@H](CCN)NC(=O)[C@H](CC(C)C)NC(=O)[C@@H](CC2CCCCC2)NC(=O)[C@H](CCN)NC1=O)[C@H](O)CCCCCC [Int-115] ({Propargyl(OCH2CH2)4CO}-[Dab][X1][azaGly][Dab][Dab][dCha]L[Dab][Dab]T; lactam 4-C) and answer again.
8
